Target: HLA-DR DRB1*0401 (DR4) (Homo sapiens, UniProt P01903+P01911, A100K/A169T/F76Y/I96L/K127E/L162R/M171V/N62H/P40V/Q125Y/R42H/S133A/S149N/S66Y/V115G/V209L/W38E)
Assay: biochemical
Assay type: binding

chemical smiles	qualifier symbol	IC50 [µM]
CC(C)C[C@H](N)C(=O)N[C@@H](CCC(=O)O)C(=O)N1CCC[C@H]1C(=O)N[C@@H](Cc1c[nH]c2ccccc12)C(=O)N[C@@H](CC(N)=O)C(=O)N[C@@H](Cc1c[nH]cn1)C(=O)N1CCC[C@H]1C(=O)NCC(=O)N[C@@H](CO)C(=O)N[C@@H](CCC(N)=O)C(=O)N1CCC[C@H]1C(=O)N[C@@H](CCCCN)C(=O)N[C@H](C(=O)N[C@@H](C)C(=O)N[C@@H](CS)C(=O)N[C@H](C(=O)O)[C@@H](C)O)[C@@H](C)O	>	33.3
CC[C@H](C)[C@H](NC(=O)[C@H](Cc1ccc(O)cc1)NC(=O)[C@@H]1CCCN1)C(=O)N[C@@H](CC(C)C)C(=O)N[C@@H](CC(C)C)C(=O)N[C@H](C(=O)N[C@@H](CO)C(=O)N[C@@H](CO)C(=O)N[C@@H](CCCCN)C(=O)N[C@H](C(=O)N[C@@H](CO)C(=O)N[C@H](C(=O)N[C@H](C(=O)N[C@@H](CCCCN)C(=O)N[C@@H](CC(=O)O)C(=O)O)C(C)C)[C@@H](C)O)C(C)C)C(C)C	=	0.064
CC[C@H](C)[C@H](NC(=O)[C@H](CCCCN)NC(=O)[C@H](CC(N)=O)NC(=O)[C@@H](NC(=O)[C@@H](NC(=O)[C@H](CC(C)C)NC(=O)[C@@H](NC(=O)[C@H](CO)NC(=O)[C@H](CC(C)C)NC(=O)[C@H](C)N)[C@@H](C)O)C(C)C)C(C)C)C(=O)N[C@@H](CCCNC(=N)N)C(=O)NCC(=O)N[C@H](C(=O)N[C@@H](Cc1ccccc1)C(=O)N[C@@H](CCCCN)C(=O)O)[C@@H](C)O	=	0.648
CC[C@H](C)[C@H](N)C(=O)N[C@@H](C)C(=O)NCC(=O)N[C@@H](CC(C)C)C(=O)N[C@@H](Cc1ccccc1)C(=O)N[C@@H](CC(C)C)C(=O)N[C@H](C(=O)N[C@H](C(=O)N[C@@H](CCC(=O)O)C(=O)N[C@@H](C)C(=O)N[C@H](C(=O)N[C@H](C(=O)N[C@@H](C)C(=O)N[C@@H](CC(=O)O)C(=O)N[C@@H](CCCCN)C(=O)O)C(C)C)C(C)C)[C@@H](C)O)[C@@H](C)O	=	0.013

----------
Target: HLA-DR DRB1*0802 (DR8) (Homo sapiens, UniProt P01903+P01911, A100R/A103L/A169T/F76Y/H45Y/I96F/K41T/L162R/M171V/P40S/Q125H/Q178H/Q39Y/Q99D/R218S/R42G/S66Y/V115G/W38E)
Experiment: biochemical
Type: binding

chemical smiles	qualifier symbol	IC50 / nM
CC(C)C[C@H](NC(=O)[C@H](Cc1ccccc1)NC(=O)CNC(=O)[C@H](CC(C)C)NC(=O)[C@H](CO)NC(=O)[C@H](CC(C)C)NC(=O)[C@H](CO)NC(=O)[C@H](C)NC(=O)[C@H](C)NC(=O)[C@H](CCCNC(=N)N)NC(=O)[C@H](C)NC(=O)[C@H](CC(C)C)NC(=O)[C@H](CC(C)C)NC(=O)[C@H](CC(C)C)NC(=O)[C@@H]1CCCN1)C(=O)O	=	37
CC[C@H](C)[C@H](NC(=O)[C@H](Cc1ccccc1)NC(=O)[C@H](Cc1c[nH]c2ccccc12)NC(=O)CNC(=O)[C@H](Cc1ccccc1)NC(=O)[C@H](CC(C)C)NC(=O)[C@H](Cc1ccccc1)NC(=O)CNC(=O)[C@@H](N)CC(C)C)C(=O)N[C@@H](CCCCN)C(=O)N[C@@H](CO)C(=O)N[C@@H](CO)C(=O)N[C@@H](CC(N)=O)C(=O)N[C@@H](CCC(=O)O)C(=O)N[C@@H](C)C(=O)O	=	1420
CC[C@H](C)[C@H](NC(=O)[C@@H](NC(=O)[C@H](Cc1c[nH]cn1)NC(=O)[C@@H](N)CC(C)C)C(C)C)C(=O)N[C@@H](CO)C(=O)N[C@@H](CC(N)=O)C(=O)N[C@@H](CC(=O)O)C(=O)N[C@H](C(=O)N[C@@H](CS)C(=O)N[C@@H](C)C(=O)N[C@@H](CCC(N)=O)C(=O)N[C@H](C(=O)N[C@@H](Cc1c[nH]cn1)C(=O)N1CCC[C@H]1C(=O)N[C@@H](CCC(N)=O)C(=O)O)C(C)C)C(C)C	>	123000
